Target: Q46 protein aggregates (Homo sapiens, UniProt P42858)
Construct: fused on or other part: GST at the N-terminus, cut off with thrombin before the test to start aggregation; The wells held aggregated Q46 without GST
Sequence (P42858 with tags, fused parts or gaps with the stated changes, form open): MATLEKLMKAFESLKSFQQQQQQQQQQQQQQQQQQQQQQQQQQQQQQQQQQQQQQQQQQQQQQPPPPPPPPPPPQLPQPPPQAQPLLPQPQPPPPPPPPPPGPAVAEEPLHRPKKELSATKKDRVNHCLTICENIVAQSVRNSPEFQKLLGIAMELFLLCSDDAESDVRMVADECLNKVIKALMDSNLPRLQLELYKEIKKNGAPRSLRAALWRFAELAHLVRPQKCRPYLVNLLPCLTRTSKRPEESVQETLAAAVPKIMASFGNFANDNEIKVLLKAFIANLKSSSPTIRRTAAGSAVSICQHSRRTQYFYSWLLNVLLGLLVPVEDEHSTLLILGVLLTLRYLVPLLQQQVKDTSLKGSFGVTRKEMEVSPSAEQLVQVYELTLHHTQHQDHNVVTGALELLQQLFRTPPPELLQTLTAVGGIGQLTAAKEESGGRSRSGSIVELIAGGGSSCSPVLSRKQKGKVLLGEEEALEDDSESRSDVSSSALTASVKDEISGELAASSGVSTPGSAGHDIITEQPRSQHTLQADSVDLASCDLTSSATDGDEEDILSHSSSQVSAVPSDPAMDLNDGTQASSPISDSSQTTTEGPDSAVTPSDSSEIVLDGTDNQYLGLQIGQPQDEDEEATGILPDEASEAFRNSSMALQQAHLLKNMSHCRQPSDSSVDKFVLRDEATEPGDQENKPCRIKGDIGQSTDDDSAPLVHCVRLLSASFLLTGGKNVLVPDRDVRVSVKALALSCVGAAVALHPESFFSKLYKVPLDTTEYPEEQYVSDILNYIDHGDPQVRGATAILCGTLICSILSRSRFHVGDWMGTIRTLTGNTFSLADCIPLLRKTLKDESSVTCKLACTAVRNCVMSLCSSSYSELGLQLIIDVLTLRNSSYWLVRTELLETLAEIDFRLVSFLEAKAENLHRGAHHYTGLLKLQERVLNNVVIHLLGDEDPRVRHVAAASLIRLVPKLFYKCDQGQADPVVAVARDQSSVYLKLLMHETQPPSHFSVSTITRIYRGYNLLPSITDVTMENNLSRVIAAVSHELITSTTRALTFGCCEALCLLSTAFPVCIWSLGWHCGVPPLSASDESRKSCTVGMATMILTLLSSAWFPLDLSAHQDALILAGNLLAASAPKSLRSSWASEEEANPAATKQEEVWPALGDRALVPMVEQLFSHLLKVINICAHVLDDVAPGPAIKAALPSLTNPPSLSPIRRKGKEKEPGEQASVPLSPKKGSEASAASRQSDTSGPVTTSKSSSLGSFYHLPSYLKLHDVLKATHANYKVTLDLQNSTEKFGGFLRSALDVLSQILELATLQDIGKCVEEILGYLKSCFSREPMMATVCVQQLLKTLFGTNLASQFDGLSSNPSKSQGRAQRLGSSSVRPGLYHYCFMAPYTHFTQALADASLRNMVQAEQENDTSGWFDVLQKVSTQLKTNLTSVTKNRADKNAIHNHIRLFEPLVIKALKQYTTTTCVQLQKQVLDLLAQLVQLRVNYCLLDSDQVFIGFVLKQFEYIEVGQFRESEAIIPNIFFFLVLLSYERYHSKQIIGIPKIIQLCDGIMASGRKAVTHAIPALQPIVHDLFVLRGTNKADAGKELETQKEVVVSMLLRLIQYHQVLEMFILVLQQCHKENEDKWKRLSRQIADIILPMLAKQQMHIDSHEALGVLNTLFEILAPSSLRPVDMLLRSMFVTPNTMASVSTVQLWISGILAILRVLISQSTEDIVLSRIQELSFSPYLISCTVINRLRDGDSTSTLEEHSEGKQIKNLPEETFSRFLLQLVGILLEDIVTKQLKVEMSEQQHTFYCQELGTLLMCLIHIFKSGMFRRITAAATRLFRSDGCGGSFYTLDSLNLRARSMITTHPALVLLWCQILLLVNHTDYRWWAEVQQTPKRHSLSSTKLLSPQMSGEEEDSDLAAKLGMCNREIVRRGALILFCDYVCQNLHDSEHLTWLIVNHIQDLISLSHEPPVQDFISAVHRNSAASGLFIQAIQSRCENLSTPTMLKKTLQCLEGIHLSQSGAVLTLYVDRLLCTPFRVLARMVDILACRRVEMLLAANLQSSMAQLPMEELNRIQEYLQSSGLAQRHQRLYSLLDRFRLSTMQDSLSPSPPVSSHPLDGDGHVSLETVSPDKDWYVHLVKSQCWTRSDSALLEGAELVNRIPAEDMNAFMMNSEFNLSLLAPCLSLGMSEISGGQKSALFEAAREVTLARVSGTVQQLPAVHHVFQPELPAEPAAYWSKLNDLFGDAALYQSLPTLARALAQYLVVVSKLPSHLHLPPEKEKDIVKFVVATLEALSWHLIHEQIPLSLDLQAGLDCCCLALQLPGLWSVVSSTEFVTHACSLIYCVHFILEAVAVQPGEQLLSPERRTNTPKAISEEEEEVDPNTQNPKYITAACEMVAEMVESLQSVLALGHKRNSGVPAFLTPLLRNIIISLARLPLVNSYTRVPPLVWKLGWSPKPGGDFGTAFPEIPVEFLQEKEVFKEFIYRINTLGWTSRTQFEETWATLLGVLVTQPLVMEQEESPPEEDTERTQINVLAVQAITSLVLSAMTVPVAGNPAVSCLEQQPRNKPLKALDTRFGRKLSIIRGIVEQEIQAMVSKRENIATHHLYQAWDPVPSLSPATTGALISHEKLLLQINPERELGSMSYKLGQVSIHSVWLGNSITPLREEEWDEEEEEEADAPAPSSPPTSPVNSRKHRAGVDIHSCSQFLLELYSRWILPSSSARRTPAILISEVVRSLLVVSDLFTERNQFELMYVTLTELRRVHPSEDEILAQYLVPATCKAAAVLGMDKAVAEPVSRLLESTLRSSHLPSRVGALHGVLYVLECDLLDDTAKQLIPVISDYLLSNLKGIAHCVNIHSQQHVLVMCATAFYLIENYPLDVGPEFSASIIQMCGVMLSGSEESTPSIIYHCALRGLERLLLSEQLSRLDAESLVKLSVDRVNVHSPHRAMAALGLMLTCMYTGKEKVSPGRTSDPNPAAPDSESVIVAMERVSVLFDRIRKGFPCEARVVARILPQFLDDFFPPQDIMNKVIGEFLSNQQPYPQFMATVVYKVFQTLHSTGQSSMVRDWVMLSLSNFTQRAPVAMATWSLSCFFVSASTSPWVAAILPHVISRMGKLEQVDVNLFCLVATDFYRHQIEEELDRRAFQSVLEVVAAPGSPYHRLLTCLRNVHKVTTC
Assay: Q46 radioligand binding assay (RBA)
Settings: 10 nM ligand [3H3]MK-3328
Here, each record is paired with measured IC50 data.

{"columns": ["Molecule", "IC50"],
 "data": [
  ["COc1ccc(COc2cnc3oc(-c4ccc(=O)n(C)n4)nc3c2)nc1", "< 0.1 µM"],
  ["COc1ccnc(COc2cnc3oc(-c4cccnc4)nc3c2)c1", "< 0.1 µM"],
  ["CNc1ccc(COc2ccc3oc(-c4cccnc4)nc3c2)nc1", "< 0.1 µM"],
  ["CNCc1cncc(-c2nc3cc(OCc4ccc(OC)cn4)ccc3o2)c1", "< 0.1 µM"],
  ["COc1ccc(COc2ccc3oc(C4CCN(C)CC4)nc3c2)nc1", "0.1 to 0.5 µM"],
  ["Brc1cnccc1-c1nc2ccc(OCCN3CCOCC3)cc2s1", "< 0.1 µM"],
  ["COc1ccc(COc2ccc3oc(-c4ccc(-c5ncccn5)cc4)nc3c2)nc1", "< 0.1 µM"],
  ["COc1ccc(COc2ccc3oc(-c4cccc(Oc5ccccc5)c4)nc3c2)nc1", "< 0.1 µM"],
  ["CN(C)CCOc1ccc(COc2ccc3oc(-c4cccnc4)nc3c2)cc1", "0.1 to 0.5 µM"],
  ["COc1cccc(C(=O)Nc2ccc3oc(-c4cccnc4)nc3c2)n1", "< 0.1 µM"],
  ["COc1ccc(COc2ccc3oc(-c4ccc(OC)cn4)nc3c2)nc1", "< 0.1 µM"],
  ["COc1ccc(C(=O)Nc2ccc3oc(-c4ccc(OC)cc4)nc3c2)cc1", "< 0.1 µM"],
  ["COc1cnc(COc2cnc3oc(-c4cnn(C)c4)nc3c2)cn1", "< 0.1 µM"],
  ["COc1ccc(/C=C\\c2cnc3oc(-c4cccnc4)nc3c2)cc1", "< 0.1 µM"],
  ["COc1ccc(Nc2ccc3oc(-c4cccnc4)nc3c2)cc1", "0.1 to 0.5 µM"],
  ["c1cncc(COc2ccc3oc(-c4cccnc4)nc3c2)c1", "< 0.1 µM"],
  ["Cn1cc(-c2nc3cc(OCc4cnccn4)cnc3o2)cn1", "0.1 to 0.5 µM"],
  ["COc1cncc(NC(=O)c2ccc3oc(-c4cccnc4)nc3c2)c1", "< 0.1 µM"],
  ["COc1ccc(C(=O)Nc2ccc3oc(-c4cccc(C)c4)nc3c2)cc1", "< 0.1 µM"],
  ["COc1cncc(COc2cnc3oc(-c4cccnc4)nc3c2)c1", "< 0.1 µM"],
  ["COc1ccc(COc2ccc3oc(-c4ccc(C#N)cc4)nc3c2)nc1", "< 0.1 µM"],
  ["O=C(Nc1ccc2oc(-c3cccnc3)nc2c1)c1ccc(C(F)(F)F)nc1", "< 0.1 µM"],
  ["Brc1ccc(COc2ccc3oc(-c4cccnc4)nc3c2)nc1", "< 0.1 µM"],
  ["COc1ccc2c(c1)CN(c1cnc3oc(-c4cccnc4)nc3c1)C2=O", "< 0.1 µM"],
  ["COc1ccc(COc2ccc3oc(-c4ccc(=O)n(C)c4)nc3c2)nc1", "< 0.1 µM"],
  ["O=C(Nc1ccc2oc(-c3cccnc3)nc2c1)c1nnc(-c2ccccc2)o1", "< 0.1 µM"],
  ["COc1ccc(COc2cnc3oc(-c4ccc[n+]([O-])c4)nc3c2)[n+]([O-])c1", "0.1 to 0.5 µM"],
  ["O=C(Nc1ccc2oc(-c3cccnc3)nc2c1)C1Cc2ccccc2O1 (stereo not drawn)", "< 0.1 µM"],
  ["COc1ccc(COc2ccc3oc(-c4ccncn4)nc3c2)nc1", "< 0.1 µM"],
  ["COc1ccc(COc2ccc3oc([C@H]4Cc5ccccc5O4)nc3c2)nc1", "< 0.1 µM"],
  ["Cn1cc(-c2ccc(COc3cnc4oc(-c5cccnc5)nc4c3)nc2)cn1", "< 0.1 µM"],
  ["COc1ccc(CNc2ccc3oc(-c4cccnc4)nc3c2)cc1", "< 0.1 µM"],
  ["COc1ccc2c(c1)CCN(c1ccc3oc(-c4cccnc4)nc3c1)C2=O", "0.1 to 0.5 µM"],
  ["O=C(Nc1ccc2oc(-c3ccccc3)nc2c1)c1ccccc1", "< 0.1 µM"],
  ["Cn1cc(COc2ccc3oc(-c4ccncc4C#N)cc3c2)cn1", "< 0.1 µM"],
  ["c1cncc(COc2ccc3nc(-c4cccnc4)oc3c2)c1", "< 0.1 µM"],
  ["O=C(Nc1ccc2oc(-c3cccnc3)nc2c1)c1cccc(OCc2ccccc2)c1", "< 0.1 µM"],
  ["COc1ccc(COc2ccc3oc(-c4cccc(CN(C)C)c4)nc3c2)nc1", "< 0.1 µM"],
  ["COc1ccc(COC(=O)Nc2ccc3oc(-c4cccnc4)nc3c2)nc1", "< 0.1 µM"],
  ["Cc1cncc(Oc2ccc(C(=O)Nc3ccc4oc(-c5cccnc5)nc4c3)cc2)n1", "< 0.1 µM"],
  ["Cn1nc(C(=O)Nc2ccc3oc(-c4ccc(=O)n(C)n4)nc3c2)ccc1=O", "< 0.1 µM"],
  ["COc1ccc(COc2ccc3oc(-c4ccncc4)nc3c2)nc1", "< 0.1 µM"],
  ["Brc1ccc(COc2cnc3oc(-c4cccnc4)nc3c2)nc1", "< 0.1 µM"],
  ["COc1ccc(COc2ccc3oc(N4CC(F)C4)nc3c2)nc1", "0.1 to 0.5 µM"],
  ["O=C(Nc1ccc2oc(-c3cccnc3)nc2c1)c1ccc(-c2ncccn2)cc1", "< 0.1 µM"]
]}

Every entry's value here was drawn from patent US12258355B2.
